- tested-target: Jak2 (UniProt O60674)
- Sequence (O60674 whole entry, looked up): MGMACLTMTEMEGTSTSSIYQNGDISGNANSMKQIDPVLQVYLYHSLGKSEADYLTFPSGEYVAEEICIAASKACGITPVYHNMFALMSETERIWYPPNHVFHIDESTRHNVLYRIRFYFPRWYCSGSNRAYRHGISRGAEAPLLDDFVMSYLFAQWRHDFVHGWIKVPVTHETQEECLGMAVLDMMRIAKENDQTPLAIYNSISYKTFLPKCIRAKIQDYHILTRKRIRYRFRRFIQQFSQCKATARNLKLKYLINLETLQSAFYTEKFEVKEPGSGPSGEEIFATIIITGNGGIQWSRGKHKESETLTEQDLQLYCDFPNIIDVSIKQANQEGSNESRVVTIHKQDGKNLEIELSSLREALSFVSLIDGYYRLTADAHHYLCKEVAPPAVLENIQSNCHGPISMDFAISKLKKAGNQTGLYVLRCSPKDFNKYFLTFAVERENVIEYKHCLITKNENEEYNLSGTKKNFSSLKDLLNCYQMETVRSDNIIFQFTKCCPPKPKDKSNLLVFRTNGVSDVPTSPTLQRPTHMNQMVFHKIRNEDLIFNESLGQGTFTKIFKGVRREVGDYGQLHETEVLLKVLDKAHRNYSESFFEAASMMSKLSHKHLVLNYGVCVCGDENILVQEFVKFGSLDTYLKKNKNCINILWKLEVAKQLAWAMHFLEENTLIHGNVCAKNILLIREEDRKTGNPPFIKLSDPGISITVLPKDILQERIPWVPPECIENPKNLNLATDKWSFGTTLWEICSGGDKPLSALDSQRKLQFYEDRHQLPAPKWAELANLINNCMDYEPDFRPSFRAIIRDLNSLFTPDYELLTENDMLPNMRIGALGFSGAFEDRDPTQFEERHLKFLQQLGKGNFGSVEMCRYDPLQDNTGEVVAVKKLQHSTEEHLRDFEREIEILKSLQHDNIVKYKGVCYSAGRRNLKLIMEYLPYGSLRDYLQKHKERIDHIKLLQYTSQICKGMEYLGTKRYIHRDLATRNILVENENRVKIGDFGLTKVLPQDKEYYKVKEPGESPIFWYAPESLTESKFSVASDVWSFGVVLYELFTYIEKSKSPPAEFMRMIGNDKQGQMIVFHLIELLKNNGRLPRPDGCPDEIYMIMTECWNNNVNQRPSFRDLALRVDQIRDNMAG
- assay-notes: phosphorylation enrichment, bacterial display (enrichment ratio); higher = better substrate or ligand; peptides without Tyr show the background;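 further: 11-residue human phosphosite peptides and single-mutation variants displayed on the E. coli surface, counted by deep sequencing, each peptide's frequency after selection divided by its frequency in the unselected input library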;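 further: frequency after pTyr selection over input frequency; kinase dosed for 20-30% of maximal phosphorylation in three min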
Items are presented alongside their recorded phosphorylation enrichment.
measured-endpoint: phosphorylation enrichment

{"columns": ["entry-sequence", "result-number"],
 "data": [
  ["FAKSVYWDNTL [NUP107_Y296_E298D_YF]", 1.02],
  ["KWRGQYDVAIK [BTK_Y425]", 0.543],
  ["QCTSHYPEHVC [SART3_Y541_D540H]", 0.766],
  ["EWLRGYLENGK [HLA-C_Y195_R194G]", 0.777],
  ["RQSTLYSFFPK [MSH6_Y8]", 0.685],
  ["HEKKAYSFCGT [RPS6KA3_Y226]", 0.695],
  ["DEEEEYEYMNR [ERBB3_Y1197_D1194E]", 1],
  ["KTKLGYSPLHQ [ANK1_Y735]", 0.397],
  ["DLLNSYIENEG [HSPA4L_Y600]", 1.17],
  ["EFQLPYFNTVP [BMPR1A_Y457_M460T_YF]", 1.08],
  ["PDMHSYMVRYN [GRIN2D_Y732]", 1.07],
  ["EHTILYSNNST [KANSL1_Y223_T221I]", 0.488],
  ["ADGLEYPRTGL [MMUT_Y287_S288P]", 0.495],
  ["GSTLSYGRDGR [MATR3_Y158_P154S]", 0.452]
]}

---

- Test system: AncSZ
- assay-notes: phosphorylation enrichment, bacterial display (enrichment ratio); higher = better substrate or ligand; peptides without Tyr show the background
Where phosphorylation enrichment equals or exceeds 0.9, the correct label is criterion met; where it does not, the label is criterion not met.

{"columns": ["entry-sequence", "tested-target", "qualitative-label"],
 "data": [
  ["IYLGAYDRFLP [SLC22A5_Y486_V481I]", "AncSZ", "criterion met"],
  ["CQAHGYFCQPI [STK11_Y156_L160P]", "AncSZ", "criterion not met"],
  ["RWGQKYMTAVV [CYBA_Y72]", "AncSZ", "criterion not met"],
  ["CTTIHYNFMCI [TP53_Y234_N239I_YF]", "AncSZ", "criterion met"],
  ["PVVKLYATEGR [RP1_Y199_D202E]", "AncSZ", "criterion not met"],
  ["IPGRFYETGSI [PAX2_Y73_L69P_YF]", "AncSZ", "criterion not met"],
  ["PVDNLYAEPAV [PRPS1_Y146]", "AncSZ", "criterion met"],
  ["RLKAKYAAATG [GLI3_Y933]", "AncSZ", "criterion not met"],
  ["LFFFSYLLKNH [PTEN_Y180_V175L_YF]", "AncSZ", "criterion met"],
  ["ASKEPYFVHCI [MYO1D_Y585_R588H_YF]", "AncSZ", "criterion not met"],
  ["NTDETYCIDNK [TUBB3_Y200_E205K]", "AncSZ", "criterion met"],
  ["VIVRMYDYHVL [RPF2_Y109_G106V]", "AncSZ", "criterion met"],
  ["KNKKDYFDMFE [SLC26A3_Y526_YF]", "AncSZ", "criterion not met"],
  ["ENAGYYFRVSA", "AncSZ", "criterion met"],
  ["SENFTYIWWLN [PSG4_Y271_K267E_YF]", "AncSZ", "criterion met"],
  ["MVIPNYSSWTE [UROC1_Y185_R188W]", "AncSZ", "criterion met"],
  ["KQRKEYMHRWQ [IQGAP2_Y710_R714W]", "AncSZ", "criterion not met"],
  ["RIVEIYTRRLQ [GCH1_Y175_S176T]", "AncSZ", "criterion met"],
  ["EEGNPYFSSAR [MCCC2_Y520_YF]", "AncSZ", "criterion met"],
  ["VEKEKYVSFIS [JMJD1C_Y596_M591V_YF]", "AncSZ", "criterion not met"],
  ["EFNINYNNELP [THG1L_Y228]", "AncSZ", "criterion not met"],
  ["KATKGYLDDPT [G6PD_Y322_E317K]", "AncSZ", "criterion not met"],
  ["ADARMYGVLPW [PLP1_Y207]", "AncSZ", "criterion not met"],
  ["QCTSHYPEHVC [SART3_Y541_D540H]", "AncSZ", "criterion met"],
  ["AHAGEYGEEAL [HBA1_Y25_A27E]", "AncSZ", "criterion met"]
]}
